# maps each entry to its AC50
Molecular target: His6-TEV-PPARγ-(234-505) (Homo sapiens, UniProt P37231)
Construct: The His6-TEV-PPARγ-(234-505) protein for assay was expressed and purified; TEV cleavage site (N); made in house
Sequence (P37231 234-505): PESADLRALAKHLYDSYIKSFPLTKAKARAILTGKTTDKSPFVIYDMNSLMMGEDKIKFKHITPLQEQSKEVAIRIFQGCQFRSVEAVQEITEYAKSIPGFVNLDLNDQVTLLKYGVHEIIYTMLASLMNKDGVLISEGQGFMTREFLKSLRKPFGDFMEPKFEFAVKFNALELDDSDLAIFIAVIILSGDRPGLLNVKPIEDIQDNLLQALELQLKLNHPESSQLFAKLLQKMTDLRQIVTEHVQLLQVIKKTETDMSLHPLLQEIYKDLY
Test: TR-FRET Assay to Measure Co-R Peptide Recruitment to PPARγ
Format: biochemical
Details: Co-R peptide (SMRT-ID2) recruitment; top final concentration 20 μM; read-out: TR-FRET i-Ag; AC50
Express your answer in nM, writing the number without its unit.

Past entries and their recorded results:
[[record]]
molecule = "COc1cc(-c2cc(C(=O)N3CC[C@H](C(=O)NC4CCN(c5ccnc6[nH]ncc56)C4)CC34CC4)n[nH]2)c(F)cn1 (single isomer, unassigned) [Example 450-B]"
value_observed = 6.8

[[record]]
molecule = "COc1cc(-c2cc(C(=O)N3CCC(C(=O)NCC45CCC(O)(C4)C5)CC34CC4)n[nH]2)c(F)cn1 (stereo not drawn)"
value_observed = 417

[[record]]
molecule = "Cc1cc(-c2cc(C(=O)N3[C@@H]4CC[C@H]3C[C@H](C(=O)N[C@H]3CC[C@@](O)(C(F)(F)F)CC3)C4)n[nH]2)c(F)cn1"
value_observed = 7.5


Consider the molecule shown here: COc1cc(-c2cc(C(=O)N3CC[C@H](C(=O)NC45CC(C4)N(CC(C)(C)F)C5)CC34CC4)n[nH]2)c(F)cn1 What is its recorded AC50? 399

Returns the measured AC50 for the input molecule. Input: COc1cc(-c2cc(C(=O)N3CC[C@H](C(=O)NC(C)c4nnc(C5CC5)o4)CC34CC4)n[nH]2)c(F)cn1 (single isomer, unassigned) 671

AC50 for COc1cc(-c2cc(C(=O)N3CC[C@H](C(=O)NC4CCC5(CCCN5C5COC5)CC4)CC34CC4)n[nH]2)c(F)cn1 (stereo partly drawn) ? 187

What value of AC50 has been recorded for this entry: CCc1cc(-c2cc(C(=O)N3CCC(C(=O)NCc4ncc(F)cc4Cl)CC34CC4)n[nH]2)c(F)cn1 (single isomer, unassigned) [Example 483-A] 216

What value of measured AC50 is listed for COc1cc(-c2cc(C(=O)N3CCC(C(=O)NC4CC(C)(F)C4)CC3)n[nH]2)c(Cl)cn1 (mixture of isomers) ? 383

---

Biological target: His6-TEV-PPARγ-(234-505) (Homo sapiens, UniProt P37231)
Construct: The His6-TEV-PPARγ-(234-505) protein for assay was expressed and purified; TEV cleavage site (N); made in house
Sequence (P37231 234-505): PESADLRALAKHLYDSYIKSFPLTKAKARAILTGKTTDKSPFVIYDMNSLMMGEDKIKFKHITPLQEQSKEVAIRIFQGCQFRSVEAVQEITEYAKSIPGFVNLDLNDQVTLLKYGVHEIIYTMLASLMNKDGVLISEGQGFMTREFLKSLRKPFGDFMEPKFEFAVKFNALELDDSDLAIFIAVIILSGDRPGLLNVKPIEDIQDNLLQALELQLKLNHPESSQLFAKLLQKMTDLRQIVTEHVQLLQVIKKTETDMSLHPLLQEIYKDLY
Assay: TR-FRET Assay to Measure Co-R Peptide Recruitment to PPARγ
Assay type: biochemical
Details: Co-R peptide (SMRT-ID2) recruitment; top final concentration 20 μM; read-out: TR-FRET i-Ag; AC50
Recorded AC50 for the following molecules

[[record]]
molecule = "COc1cc(-c2cc(C(=O)N3CCC(NC(=O)C4CCC(O)(C(F)(F)F)CC4)CC34CC4)n[nH]2)c(F)cn1 (single isomer, unassigned) [Example 347-D]"
parameter = "AC50"
value_observed = "≥ 20000 nM"

[[record]]
molecule = "COc1cc(-c2cc(C(=O)N3CCC(C(=O)NC(C)C45CCC(O)(CC4)CC5)CC34CC4)n[nH]2)c(F)cn1 (mixture of isomers)"
parameter = "AC50"
value_observed = "37.2 nM"

[[record]]
molecule = "COc1cc(-c2cc(C(=O)N3CCC(C(=O)NCc4cccc(Cl)c4)CC3C)n[nH]2)c(Cl)cn1 (mixture of isomers)"
parameter = "AC50"
value_observed = "16.5 nM"

[[record]]
molecule = "COc1cc(-c2cc(C(=O)N3CCC(C(=O)NCC4(O)CCCCC4)CC3)n[nH]2)c(Cl)cn1"
parameter = "AC50"
value_observed = "238 nM"

[[record]]
molecule = "COc1cc(-c2cc(C(=O)N3CC[C@H](C(=O)NCc4cccnc4C(F)(F)F)CC34CC4)[nH]n2)c(F)cn1 [Example 500]"
parameter = "AC50"
value_observed = "7.5 nM"


Field: next molecule
Could you share which AC50 value was measured for CO[C@]1(C(F)(F)F)CC[C@@H](NC(=O)[C@H]2CCN(C(=O)c3cc(-c4cc(C)ncc4F)[nH]n3)C3(CC3)C2)CC1 (single isomer, unassigned) ? 2.8 nM
